Target: Estrogen receptor (Homo sapiens, UniProt P03372)
Sequence (P03372 whole entry): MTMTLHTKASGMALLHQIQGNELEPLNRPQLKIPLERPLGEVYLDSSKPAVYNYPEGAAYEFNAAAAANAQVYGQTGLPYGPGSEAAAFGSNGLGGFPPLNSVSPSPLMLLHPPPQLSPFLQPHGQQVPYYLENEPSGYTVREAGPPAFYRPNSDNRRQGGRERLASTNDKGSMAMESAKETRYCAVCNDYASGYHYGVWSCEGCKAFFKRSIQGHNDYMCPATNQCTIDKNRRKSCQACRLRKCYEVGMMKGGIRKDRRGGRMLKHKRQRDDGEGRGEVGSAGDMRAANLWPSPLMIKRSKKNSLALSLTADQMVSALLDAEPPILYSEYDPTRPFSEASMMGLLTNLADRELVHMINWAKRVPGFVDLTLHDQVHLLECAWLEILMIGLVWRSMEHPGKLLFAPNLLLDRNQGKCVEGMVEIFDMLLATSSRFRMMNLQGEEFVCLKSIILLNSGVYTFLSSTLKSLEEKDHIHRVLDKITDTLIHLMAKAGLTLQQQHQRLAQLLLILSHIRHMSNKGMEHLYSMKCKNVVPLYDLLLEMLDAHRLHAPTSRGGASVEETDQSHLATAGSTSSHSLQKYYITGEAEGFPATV
Assay: Antagonist activity at ER alpha in human MCF7 cells assessed as inhibition of estradiol-induced PR expression treated for 24 hrs after incubation with estradiol for 30 mins by laser scanning imaging cytometer analysis
Format: cell-based
Kindly state pIC50 for each of the entries shown.
One number for each entry, as −log10 of the molar value.

Please review the entries below; each comes with its answer.
Cc1cc(F)ccc1-c1c(Oc2ccc(/C=C/C(=O)O)cc2)c2ccccc2oc1=O : 6.48
O=C(O)/C=C/c1ccc(Cc2c(-c3ccccc3)c(=O)oc3cc(O)ccc23)cc1 : 5.82
Cc1cc(F)ccc1-c1c(Oc2ccc(/C=C/C(=O)O)cc2)c2ccc(O)cc2oc1=O : 7.57
Cc1cc(OC(F)(F)F)ccc1-c1c(Oc2ccc(/C=C/C(=O)O)cc2)c2ccccc2oc1=O : 6.74

Please examine the following record next.
**Query** Write down measured pIC50 (Estrogen receptor (Homo sapiens, UniProt P03372)) for this molecule. `Cc1cc(OC(F)(F)F)ccc1-c1c(Oc2ccc(/C=C/C(=O)O)cc2)c2ccc(O)cc2oc1=O`
**Result** 8.41

###

Assay: Dissociation constant, pKa of the compound by potentiometric analysis […] phenol
Assay type: physicochemical
ENDPOINT_LABEL: pKa
Answers are plain numbers.

Reference set (3 entries):
O=C(O)/C=C/c1ccc(Cc2c(-c3ccc(OC(F)(F)F)cc3)c(=O)oc3cc(O)ccc23)cc1 : 8.7
Cc1cc(F)ccc1-c1c(Oc2ccc(/C=C/C(=O)O)cc2)c2cc(F)c(O)cc2oc1=O : 5.8
O=C(O)/C=C/c1ccc(Cc2c(-c3ccccc3)c(=O)oc3cc(O)ccc23)cc1 : 7.7

I would be grateful if you could provide pKa for each of the following entries.
1. Cc1cc(F)ccc1-c1c(Oc2ccc(/C=C/C(=O)O)cc2)c2ccc(O)c(F)c2oc1=O
2. Cc1cc(F)ccc1-c1c(Cc2ccc(/C=C/C(=O)O)cc2)c2c(F)cc(O)cc2oc1=O

**Result**
[6.1, 7.2]

###

Target: Estrogen receptor (Homo sapiens)
Assay: Suppression of ER alpha in human MCF7 cells after 24 hrs by immunostaining analysis
Format: cell-based
Field: IC50. Provide a value for each of the molecules that follow.
Give bare numbers, in nM.

Cc1cc(F)ccc1-c1c(Oc2ccc(/C=C/C(=O)O)cc2)c2ccc(O)c(F)c2oc1=O : 509

Would you be so kind as to report IC50 for each listed record?
1. O=C(O)/C=C/c1ccc(Cc2c(-c3ccc(OC(F)(F)F)cc3)c(=O)oc3cc(O)ccc23)cc1
2. Cc1cc(F)ccc1-c1c(-c2ccc(/C=C/C(=O)O)cc2)c2ccc(O)cc2oc1=O
3. Cc1cc(F)ccc1-c1c(Oc2ccc(/C=C/C(=O)O)cc2)c2ccccc2oc1=O

**Result**
[52, 256, 248]

**Query** Name the recorded IC50 of `Cc1cc(OC(F)(F)F)ccc1-c1c(Oc2ccc(/C=C/C(=O)O)cc2)c2ccccc2oc1=O` , assay system Estrogen receptor (Homo sapiens).
**Result** 100

###

Assay: Oral bioavailability in Alderley Park Han Wistar rat at 1 mg/kg using 5% DMSO, 95% of a 30% aqueous cyclodextrin solution
Assay type: ADME, organism-based
Settings: in vivo
ENDPOINT_LABEL: bioavailability (%)
One number for each entry, in %.

**Query** Supply measured bioavailability of `CC/C(=C(\c1ccccc1)c1ccc(/C=C/C(=O)O)cc1)c1ccccc1` in your reply.
**Result** 68
